Target: Carbonic anhydrase 5A, mitochondrial (Homo sapiens)
Sequence (P35218 whole entry): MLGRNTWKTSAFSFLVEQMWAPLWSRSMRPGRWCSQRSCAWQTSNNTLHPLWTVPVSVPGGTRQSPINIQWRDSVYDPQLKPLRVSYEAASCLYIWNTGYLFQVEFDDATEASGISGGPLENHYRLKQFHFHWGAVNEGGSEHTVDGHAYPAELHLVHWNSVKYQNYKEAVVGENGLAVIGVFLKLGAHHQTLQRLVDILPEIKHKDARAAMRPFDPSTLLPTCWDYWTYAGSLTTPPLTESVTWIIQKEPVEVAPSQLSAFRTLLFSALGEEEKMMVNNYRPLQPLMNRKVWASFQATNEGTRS
experimental endpoint: pKi
Scale: negative log10 of molar concentration, which is what pKi denotes.

query: Lab note: need pKi with Carbonic anhydrase 5A, mitochondrial (Homo sapiens) for entry `CC1(C)C2CC[C@]1(CS(=O)(=O)NCc1ccc(S(N)(=O)=O)cc1)C(=O)C2` , please look it up.
result: 7.78

* * *

Biological target: Carbonic anhydrase 1 (Homo sapiens, UniProt P00915)
Sequence (P00915 whole entry): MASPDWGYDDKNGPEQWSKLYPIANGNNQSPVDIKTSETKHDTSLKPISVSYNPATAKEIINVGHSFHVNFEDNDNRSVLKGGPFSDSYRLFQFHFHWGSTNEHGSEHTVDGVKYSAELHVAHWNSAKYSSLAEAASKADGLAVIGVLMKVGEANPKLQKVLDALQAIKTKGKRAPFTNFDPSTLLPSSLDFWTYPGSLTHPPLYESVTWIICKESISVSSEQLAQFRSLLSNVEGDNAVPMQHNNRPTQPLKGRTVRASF
experimental endpoint: Ki
Quote the value and follow it with the unit of measurement.

query: Lab note: need Ki with Carbonic anhydrase 1 (Homo sapiens, UniProt P00915) for entry `CC1(C)C2CC[C@]1(CS(=O)(=O)NCc1ccc(S(N)(=O)=O)cc1)C(=O)C2` , please look it up.
result: 920 nM
